procedure.summary: NCI Yeast Anticancer Drug Screen. Data for the wt1 strain (AID 149);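 further: 0% = growth of vehicle-treated wt1 cultures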
measurement.conditions: S. cerevisiae wt1 strain (SPY 50644) growth inhibition; at 1.2 µM
This is part of a sample that, as a whole, favours compounds with a hit. Of some 79,000 tested, about 15% had one in any assay. Calls of active or inactive are those of the source. No stated cut-off is given here; in the data, active means growth inhibition above about 70%; inactive means the rest.
Classes to choose from: active, inactive

CCCCCC/C(C)=N/Nc1ccc([N+](=O)[O-])cc1[N+](=O)[O-] ... inactive
O=C1C=CC(=Nc2ccc3c(c2)Cc2cc(Cl)ccc2-3)O1 ... inactive
O=C(Cc1ccccc1)c1ccc(O)cc1 ... inactive
CCCCCCCCCCCCCCCCOCC(Cl)COP(=O)(O)OP(=O)(O)OCC1OC(n2cnc3c(N)ncnc32)C(O)C1O (stereo unspecified) ... inactive

Give the logged outcome of this assay for the following compound: "CCCCCCCCCC/C=C\CC(=O)O" inactive

Give the logged outcome of this assay for the following compound: Cc1c(N=Nc2ccc(Cl)cc2)c(C)n(C2OC(CO)C(O)C(O)C2O)c(=S)c1C#N (stereo unspecified) inactive

Give the logged outcome of this assay for the following compound: "O=S(=O)(O)c1ccc2c(N=Nc3c(O)ccc4ccccc34)cccc2c1" inactive

Give the logged outcome of this assay for the following compound: "COc1ccc2c(C)cc(N/N=C/c3sccc3C)nc2c1" inactive

Give the logged outcome of this assay for the following compound: "CC[C@]1(O)C[C@H]2CN(CCc3c([nH]c4ccccc34)[C@@](C(=O)OC)(c3cc4c(cc3OC)N(C)[C@H]3[C@@](O)(C(=O)OC)[C@H](OC(C)=O)[C@]5(CC)C=CCN6CC[C@]43[C@@H]65)C2)C1" inactive

Give the logged outcome of this assay for the following compound: "O=C(O)[C@H]1[C@@H](C2CCCCC2)O[C@@H](C2CCCCC2)O[C@H]1C(F)(F)F" inactive

Give the logged outcome of this assay for the following compound: "CCCC(=O)OC(OC(=O)CCC)c1ccc([N+](=O)[O-])o1" inactive

Give the logged outcome of this assay for the following compound: "C[n+]1c(-c2ccc(NC(=O)c3ccc(C(=O)Nc4ccc(-c5cn6ccccc6[n+]5C)cc4)cc3)cc2)cn2ccccc21" inactive

Give the logged outcome of this assay for the following compound: "c1cncc(C(Nc2cccc3cccnc23)Nc2cccc3cccnc23)c1" inactive

---

procedure.summary: NCI Yeast Anticancer Drug Screen. Data for the rad14 strain (AID 159);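 further: 0% = growth of vehicle-treated control cultures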
measurement.conditions: S. cerevisiae rad14 strain growth inhibition; at 100.0 µM; hits give high values
Experimental: Growth inhibition of yeast strains with defined genetic alterations is measured as a screen for potential anti-cancer activity. Selected strains with alterations in DNA damage repair or cell cycle control were exposed to compounds and growth inhibition was measured relative to vehicle treated controls. The strain used in this assay is rad14
About 79,000 compounds went through this panel and 15% of them were active in at least one assay; those are over-represented in the sample as a whole.
Parameter threshold = 90%. Response is label 1 when growth inhibition meets or exceeds it, else label 0.

CCCCCCCCCCCCCCCCCN ... label 1
O=S(=O)(O)c1ccc2c(N=Nc3c(O)ccc4ccccc34)cccc2c1 ... label 0
CC(C)OC(CCC#N)c1ccc(Cl)cc1 (stereo not given) ... label 0
C#CC1=CC(=O)C(OC)=CC1=O ... label 1
O=C1c2ccccc2C2CCC1c1ccccc12 (stereo not given) ... label 1

Quick check, growth inhibition >= 90%? "CCCCCCCCCC/C=C\CC(=O)O" label 1

---

procedure.summary: NCI Yeast Anticancer Drug Screen. Data for the mec2-1 strain (AID 157)
measurement.conditions: S. cerevisiae mec2-1 strain, at 100.0 µM, hits give high values
About 79,000 compounds went through this panel and 15% of them were active in at least one assay; those are over-represented in the sample as a whole.
quantity.measured: growth inhibition (%)
Could you give me the number in %? Just the number is fine.

Example entries and their recorded answers appear below.
Cc1ccc(N(C=O)c2c([N+](=O)[O-])cc([N+](=O)[O-])c3c2=[N+]([O-])CN=3)cc1 ... 98
Cc1ccc(C(C)C)c(C(=C2C=CC(=[N+](C)C)C=C2)c2c(C(C)C)ccc(C)c2O)c1O ... 88
O=c1[nH]c(=O)n(CCCO)cc1F ... -23
Cc1c2ccncc2c(C)c2c1oc1ccccc12 ... 98

Please look at the following compound next.
Bench note: what growth inhibition did "COc1ccc2cc(CN3CCC(C4CCN(Cc5ccc6cc(OC)ccc6c5)CC4)CC3)ccc2c1" show? 98

---

procedure.summary: NCI Yeast Anticancer Drug Screen. Data for the mec2-1 strain (AID 157)
measurement.conditions: S. cerevisiae mec2-1 strain, at 50.0 µM (retest, dose inferred, filed as 5.0), hits give high values
Compounds without any hit were thinned out: in the full panel of roughly 79,000, 15% have a hit. Calls of active or inactive are those of the source. No stated cut-off is given here; in the data, active means growth inhibition above about 70%; inactive means the rest.
The entries below come with measured growth inhibition values attached.

Example entries and their recorded answers appear below.
O=S(=O)(O)c1ccc2c(N=Nc3c(O)ccc4ccccc34)cccc2c1 ... 48% (inactive)
O=C1C=CC(=Nc2ccc3c(c2)Cc2cc(Cl)ccc2-3)O1 ... 100% (active)
COc1ccc(/C=C2\CCc3ccccc3C2=O)cc1OC ... 66% (inactive)
O=Cc1ccccc1B(O)O ... 96% (active)
O=C(Cc1ccccc1F)NC1=C(Cl)C(=O)c2ccccc2C1=O ... 50% (inactive)

Bench note: what growth inhibition did "CCN(CC)c1ccc(N=Nc2cc(S(=O)(=O)O)ccc2O)c(O)c1" show? 81% (active)

---

The entries below come with measured growth inhibition values attached.
procedure.summary: NCI Yeast Anticancer Drug Screen. Data for the rad14 strain (AID 159);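 further: 0% = growth of vehicle-treated control cultures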
measurement.conditions: S. cerevisiae rad14 strain growth inhibition; at 11.0 µM; hits give high values
About 79,000 compounds went through this panel and 15% of them were active in at least one assay; those are over-represented in the sample as a whole.
Could you give me the number in %? Just the number is fine.

Example entries and their recorded answers appear below.
O=Cn1c2ccccc2c2ccccc21 ... -19
CN(C)CCC(=O)c1c[nH]c2ccccc12 ... -9
O=C1c2ccccc2-c2ccc(NC(=O)C3CCCCC3C(=O)O)cc21 (configuration not stated) ... -2

Bench note: what growth inhibition did O=C1OC(/C=C/c2ccccc2)Sc2ccccc21 (configuration not stated) show? 4

Bench note: what growth inhibition did "COC1=C(N=[N+]=[N-])C(=O)c2ncccc2C1=O" show? 44

---

procedure.summary: NCI Yeast Anticancer Drug Screen. Data for the rad50 strain (AID 155);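 further: 0% = growth of vehicle-only cultures of the same strain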
measurement.conditions: S. cerevisiae rad50 strain growth inhibition; at 11.0 µM; hits give high values
Compounds without any hit were thinned out: in the full panel of roughly 79,000, 15% have a hit. Activity calls are given as the source filed them. Cut-off read from the data, not from the text of the source: active = growth inhibition above about 70%; inactive = the rest.
quantity.measured: growth inhibition

Nc1ccc2cc(Br)c3ccccc3c2c1 ... 1% (inactive)
Cc1cnccc1N=Nc1ccc(N(C)C)cc1 ... 13% (inactive)
C[Si](C)(C)Cc1ccccc1C(=O)O ... 4% (inactive)
O=S(=O)(Oc1c(Cl)cc(Cl)cc1Cl)c1ccccc1 ... 10% (inactive)
O=c1[nH]c(=O)n(CCCO)cc1F ... -10% (inactive)
Cc1ccc2c(/C=C/c3ccc(N(C)C)cc3)ccnc2c1C ... -20% (inactive)

Please look at the following compound next.
Bench note: what growth inhibition did "CCOC(=O)C1=C(C)NC(C)=C(C(=O)OCC)C1c1cccc([N+](=O)[O-])c1" show? 31% (inactive)

---

procedure.summary: NCI Yeast Anticancer Drug Screen. Data for the sgs1 strain (AID 173);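 further: 0% = growth of vehicle-only control cultures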
measurement.conditions: S. cerevisiae sgs1 mutant, at 33.0 µM, hits give high values
Compounds without any hit were thinned out: in the full panel of roughly 79,000, 15% have a hit.
Parameter threshold = 70%. Response is Criterion met when growth inhibition meets or exceeds it, else Criterion not met.

Quick check, growth inhibition >= 70%? "Cc1cc(N(CCOS(C)(=O)=O)CCOS(C)(=O)=O)ccc1C=O" Criterion not met

---

The entries below come with measured growth inhibition values attached.
procedure.summary: NCI Yeast Anticancer Drug Screen. Data for the sgs1 mgt1 strain (AID 161);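 further: 0% = growth of cultures given vehicle only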
measurement.conditions: S. cerevisiae sgs1 mgt1 strain, at 50.0 µM (retest, dose inferred, filed as 5.0), hits give high values
The panel holds about 79,000 compounds, 15% with a hit somewhere; the sample as a whole holds those more often.
Could you give me the number in %? Just the number is fine.

Example entries and their recorded answers appear below.
[O-]c1c2cc(-[n+]3c(-c4ccccc4)cc(-c4ccccc4)cc3-c3ccccc3)cc1COCCOCCOCCOCCOC2 ... 20
O=[N+]([O-])C(=C(NCc1ccccc1)NCc1ccccc1)C(Cl)=C(Cl)Cl ... 45
COc1ccc(CCN2C(=O)C=CC2=O)cc1OC ... 98
O=C1c2ccccc2-c2ccc(NC(=O)C3CCCCC3C(=O)O)cc21 (stereo not given) ... 7
NCC(O)CSCc1ccc(Cl)cc1 (stereo not given) ... 25

Bench note: what growth inhibition did CCCCCCCCCCCCCCCCOCC(Cl)COP(=O)(O)OP(=O)(O)OCC1OC(n2cnc3c(N)ncnc32)C(O)C1O (stereo not given) show? 96

Bench note: what growth inhibition did O=S(=O)(CCC[C@H]1[C@@H](CCOCc2ccccc2)C2CCCN1O2)c1ccccc1 (stereo not given in full) show? 20

Bench note: what growth inhibition did "CCCCCCCCCC/C=C\CC(=O)O" show? 89

Bench note: what growth inhibition did CCOC(=O)C(NC(=O)c1ccccc1)[CH](c1ccccc1)[Sn]([c]1ccccc1)([c]1ccccc1)[c]1ccccc1 (stereo not given) show? 36

Bench note: what growth inhibition did "O=C(CCCN1CCC2(CC1)OC(=O)N(c1ccccc1)C2=O)c1ccccc1" show? 69

The measured values listed here are drawn from PubChem BioAssay (NCI).
